Value source: patent US20220226425A1

- system under test: melanocortin 3 receptor (human, UniProt P41968 1-323)
- Sequence (P41968 whole entry): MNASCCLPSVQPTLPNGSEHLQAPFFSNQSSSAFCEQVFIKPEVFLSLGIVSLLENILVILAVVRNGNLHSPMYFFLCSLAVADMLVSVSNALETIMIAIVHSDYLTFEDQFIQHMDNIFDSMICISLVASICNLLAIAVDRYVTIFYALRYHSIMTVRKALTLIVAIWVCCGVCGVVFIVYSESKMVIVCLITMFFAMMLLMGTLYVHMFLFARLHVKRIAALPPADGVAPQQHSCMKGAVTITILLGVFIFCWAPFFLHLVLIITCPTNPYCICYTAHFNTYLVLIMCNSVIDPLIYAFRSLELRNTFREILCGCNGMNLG
- assay summary: cell-based or functional assay
Bridges are numbered along the chain shown (N, C = ends). [ ]: non-standard residue; d: D form. Pen = CC(C)(S)[C@H](N)C(=O)O; hCys = N[C@@H](CCS)C(=O)O; Dap = NC[C@H](N)C(=O)O
experimental readout: Selectivity Ratio MC4R/MC3R (of EC-50 values)
# respond with the number and nothing more

Input: Please give the measured Selectivity Ratio MC4R/MC3R (of EC-50 values) for this binder: Ac-REQ[dF]RW[Dap]-NH2 (lactam 2-7; SMILES CC(=O)N[C@@H](CCCNC(=N)N)C(=O)N[C@H]1CCC(=O)NC[C@@H](C(N)=O)NC(=O)[C@H](Cc2c[nH]c3ccccc23)NC(=O)[C@H](CCCNC(=N)N)NC(=O)[C@@H](Cc2ccccc2)NC(=O)[C@H](CCC(N)=O)NC1=O) [001576C, Ac-Arg-(Glu-Gln-D-Phe-Arg-Trp-Dpr)-NH2]
Output: 1.75

Input: Please give the measured Selectivity Ratio MC4R/MC3R (of EC-50 values) for this binder: Ac-R[hCys]Q[dF]RW[Pen]-NH2 (disulfide 2-7) [001555C, Ac-Arg-(hCys-Gln-D-Phe-Arg-Trp-Pen)-NH2]
Output: 2.68
